Below: a set of entries, each annotated with reported Ki.
# test system: Bromodomain-containing protein 4 (Homo sapiens)
# method description: Binding affinity to human recombinant BRD4BD2 (333 to 460 residues) expressed in Escherichia coli […] (DE3) by fluorescence polarization analysis

smiles repr: CNc1cc(-c2ccc(=O)n(C)c2)nc(NCc2ccc(OC(F)(F)F)cc2)n1
test readout: Ki
experimental result: > 100 µM
//
smiles repr: CNc1nc(NCc2cccc(-c3ccc(=O)n(C)c3)c2)cc(-c2ccc(=O)n(C)c2)n1
test readout: Ki
experimental result: 1.44 µM

Note: attention shifts to another entry.
Sample CNc1cc(-c2ccc(=O)n(C)c2)nc(NCc2cccc3ccccc23)n1 — what was its Ki?
> 100 µM
